- Test system: A549
- TEST_PROTOCOL: Cytotoxicity against human A549 cells by MTT assay
- Format: functional, cell-based
So basically: is IC50 under 5 µg/mL? Then Met. Not under? Then Not met.

{"COMPOUND": "COc1cc2ccc1Oc1cc(ccc1O)CCC(=O)CCCC2", "STUDY_SYSTEM": "A549", "CLASS_LABEL": "Met"}
{"COMPOUND": "COc1ccc2cc1Oc1ccc(c(O)c1OC)CCCCC(O)CC2 (stereo unspecified)", "STUDY_SYSTEM": "A549", "CLASS_LABEL": "Not met"}
{"COMPOUND": "COc1cc(CC/C=C/C(=O)CCc2ccc(O)cc2)ccc1O", "STUDY_SYSTEM": "A549", "CLASS_LABEL": "Not met"}
{"COMPOUND": "COC(=O)C(O)(c1cc2c(c3oc([C@]4(C)C[C@@H]4C)cc(=O)c13)C(=O)c1c(ccc([C@H]3C[C@](C)(N(C)C)[C@H](O[C@@H]4C[C@H](OC)[C@H](O)[C@@H](C)O4)[C@H](C)O3)c1O)C2=O)[C@H]1O[C@H](C)[C@@H](O)[C@@H](OC)[C@@H]1O (stereo partly specified) [ALTROMYCIN B]", "STUDY_SYSTEM": "A549", "CLASS_LABEL": "Met"}
{"COMPOUND": "CC(C)(O)[C@@H]1CC[C@@]2(C)CCC[C@@](C)(O)[C@@H]2C1", "STUDY_SYSTEM": "A549", "CLASS_LABEL": "Not met"}
{"COMPOUND": "COc1cc(C2CC(O)CC(C(O)Cc3ccc(O)cc3)O2)ccc1O (stereo unspecified)", "STUDY_SYSTEM": "A549", "CLASS_LABEL": "Not met"}

###

- Tested on: HT-29
- TEST_PROTOCOL: Cytotoxicity against human HT-29 cells by MTT assay
- Type: functional, cell-based

{"COMPOUND": "COC(=O)C(O)(c1cc2c(c3oc([C@]4(C)C[C@@H]4C)cc(=O)c13)C(=O)c1c(ccc([C@H]3C[C@](C)(N(C)C)[C@H](O[C@@H]4C[C@H](OC)[C@H](O)[C@@H](C)O4)[C@H](C)O3)c1O)C2=O)[C@H]1O[C@H](C)[C@@H](O)[C@@H](OC)[C@@H]1O (stereo partly specified)", "PREFIX_OPERATOR": "=", "IC50, µg/mL": 3.9}
{"COMPOUND": "CC(C)(O)[C@@H]1CC[C@@]2(C)CCC[C@@](C)(O)[C@@H]2C1", "PREFIX_OPERATOR": "=", "IC50, µg/mL": 12.9}
{"COMPOUND": "COc1ccc2cc1Oc1ccc(c(O)c1OC)CCCCC(O)CC2 (stereo unspecified)", "PREFIX_OPERATOR": "=", "IC50, µg/mL": 23.9}
{"COMPOUND": "COc1cc(C2CC(O)CC(C(O)Cc3ccc(O)cc3)O2)ccc1O (stereo unspecified)", "PREFIX_OPERATOR": ">", "IC50, µg/mL": 50}
{"COMPOUND": "COc1cc2ccc1Oc1cc(ccc1O)CCC(=O)CCCC2", "PREFIX_OPERATOR": "=", "IC50, µg/mL": 5.3}
{"COMPOUND": "COc1cc(CC/C=C/C(=O)CCc2ccc(O)cc2)ccc1O", "PREFIX_OPERATOR": "=", "IC50, µg/mL": 8.2}
